# ASSAY SUMMARY: log P by HPLC on reversed-phase column (EEC Directive 79/831 Annex V.A8)
# Format: physicochemical
# EXPERIMENTAL CONDITIONS: HPLC, reversed-phase C 18, 40° C., 0.1% aqueous formic acid and acetonitrile, linear gradient 10% to 90% acetonitrile
The threshold is inclusive: logP of exactly 3 counts as yes; values below receive no.

Decide: logP of `CCc1ccccc1CN(C(=O)c1c(C(F)F)nn(C)c1F)C(C)C` >= 3?
yes

Decide: logP of Cn1nc(C(F)F)c(C(=O)NC(C#N)c2ccccc2)c1Cl (racemic) >= 3?
no

Decide: logP of `Cn1nc(C(F)F)c(C(=O)NCc2ccc(Cl)cc2Cl)c1Cl` >= 3?
yes

Decide: logP of CC(c1cc(Cl)ccc1Cl)N(C)C(=O)c1c(C(F)F)nn(C)c1F (centres unmarked) >= 3?
yes

Decide: logP of CC(NC(=O)c1c(C(F)F)nn(C)c1F)c1ccccc1Cl (racemic) >= 3?
no
